This collection of values is drawn from ChEMBL document CHEMBL1133031.

Assay overview: The cytotoxic activity was evaluated in MDBK cells
Type: functional
Conditions: Bos taurus
What CC50 was measured for each of the following?

Sample answers from the record:
Cc1ccc(O)c(C(=O)NCCCCN2[C@H](C)CCC[C@@H]2C)c1	> 100 µg/mL
Cc1ccc(O)c(C(=O)NCCCN2[C@@H](C)CC[C@@H]3CCCC[C@@H]32)c1	> 100 µg/mL
Cc1ccc(O)c(C(=O)NCCCN2[C@H](C)CCC[C@@H]2C)c1	> 100 µg/mL

We next turn to a different compound, shown below.
Enquiry: Which CC50 is listed for "C[C@@H]1CCC[C@@H]2C[C@@H](NC(=O)c3cc(Cl)ccc3O)CCN21" ?
Return: > 200 µg/mL
